Listed here are molecules together with their documented cell viability.
system: SEM cells; experiment: cell viability relative to DMSO control; higher = less cytotoxic; conditions: RPMI 5 mM glucose + 10% dialyzed FBS; 48 h; 0.19 µM
Write the value in % as a bare number.

{"MOLECULE_SMILES": "CCN1CCN(c2ccc(Nc3cc(N(C)C(=O)Nc4c(Cl)c(OC)cc(OC)c4Cl)ncn3)cc2)CC1", "VALUE_MEASURED": 95.6}
{"MOLECULE_SMILES": "CC1(C)O[C@@H]2C[C@H]3[C@@H]4C[C@H](F)C5=CC(=O)C=C[C@]5(C)[C@@]4(F)[C@@H](O)C[C@]3(C)[C@]2(C(=O)CO)O1", "VALUE_MEASURED": 55.2}
{"MOLECULE_SMILES": "Cc1ccccc1C(=O)c1ccc(Nc2ccc(Br)cc2N)cc1Cl", "VALUE_MEASURED": 102}
{"MOLECULE_SMILES": "CN[C@@H](C)[C@H]1[C@H](O)C[C@@]2(C)[C@@H]3CC[C@H]4C(C)(C)[C@@H](NC)CC[C@@]45C[C@@]35CC[C@]12C", "VALUE_MEASURED": 99.2}
{"MOLECULE_SMILES": "CCNC(=O)C[C@H]1/N=C(/C2=CC=C(Cl)C=C2)C3=CC(=CC=C3[N]4C(=NN=C14)C)OC", "VALUE_MEASURED": 117}

Ask: Provide measured cell viability value, entry: `Cc1onc(-c2ccccc2Cl)c1C(=O)N[C@@H]1C(=O)N2[C@@H]1SC(C)(C)[C@@H]2C(=O)[O-]`
Reply: 115

Ask: Specify measured cell viability for `CCN1CCN(CC1)CC(=O)NC2=CC=C(C3=C2C4=C(S3)C=CC=C4)C5=C6O\C(=C/C(=O)C6=CC=C5)N7CCOCC7` .
Reply: 110

----------
tested on: NOMO1; assay: cell viability relative to DMSO control; higher = less cytotoxic; settings: RPMI 5 mM glucose + 10% FBS; 48 h; 0.0632 µM
# key: entry, value: cell viability
Field: numeric (%). Do not append units.

Consider the worked cases shown below.
{"COMPOUND": "C[C@](O)(CS(=O)(=O)c1ccc(F)cc1)C(=O)Nc1ccc(C#N)c(C(F)(F)F)c1", "cell viability / %": 133}
{"COMPOUND": "CC(C)C1NC(=O)C(NC(=O)C2=C3\\N=C\\4/C(=C(C)\\C(=O)\\C(=C4C(=O)NC5C(C)OC(=O)C(C(C)C)N(C)C(=O)CN(C)C(=O)C6CCCN6C(=O)C(NC5=O)C(C)C)N)OC3=C(C)C=C2)C(C)OC(=O)C(C(C)C)N(C)C(=O)CN(C)C(=O)C7CCCN7C1=O (centres undefined)", "cell viability / %": 6.66}
{"COMPOUND": "CC[C@]12CC[C@H]3[C@@H](CCC/4=C/C(=O)CC[C@H]34)[C@@H]1\\C=C/[C@@]2(O)C#C", "cell viability / %": 122}

# evaluate next
Ask: Note cell viability for the compound shown: `O=C1NC(=O)/C(=C/c2ccc3nccc(-c4ccncc4)c3c2)S1`
Reply: 101

----------
tested on: SEM cells; assay: cell viability relative to DMSO control; higher = less cytotoxic; details: RPMI 5 mM glucose + 10% dialyzed FBS; 48 h; 0.0632 µM
QUANTITY_KIND: cell viability (%)
Respond with the bare value in %.

Reference set (3 entries):
{"COMPOUND": "Cc1c(C)n(Cc2ccc(-c3ccccc3C(=O)O)cc2)c2ccc(C(=O)N[C@@H](C)c3ccc([N+](=O)[O-])cc3)cc12", "cell viability, %": 116}
{"COMPOUND": "O=C(Nc1cccc(C(F)(F)F)c1)Nc1cc([S+](=O)([O-])NC2CC2)ccc1-c1ccsc1", "cell viability, %": 107}
{"COMPOUND": "COC(c1ccccc1)(c1ccccc1)[C@H](Oc1nc(C)cc(C)n1)C(=O)O", "cell viability, %": 177}

Next up:
Ask: Check SEM cells data and give cell viability for `O=C1c2ccccc2-[n+]2ccc3c([nH]c4ccccc43)c21` .
Reply: 87.4

Ref: the supplement of paper PMC11451515
